FYI, the data here is from the DeepSol protein solubility set.

methodSummary: soluble on expression in E. coli; label from the status in PepcDB or PDB records

sequenceRecord	soluble on expression in E. coli
SLNSLVSWQLLLFLCATHFGEPLEKVASVGNSRPTGQQLESLGLLAPGEQSLPCTERKPAATARLSRRGTSMSPPPESSGSPQQPGLSAPHSRQIPAPQGAVMVQREKDLPNYNWNSFGLRFGKREAAPGNHGRSAGR	soluble
MTGPTPTEAVDITVSVGGFKVGDQNYPINPKITFTNNTGQAIPGGTEFQFDIPVSAPDNAKDQSGGGLKVIASGHTRANNIGGLDGVMHRVSFSLPAWKDLPAGGTYELDMVYYLPISGPANYSVISGGKEFAFKFEQPDLPIGDLNAGTGGGGTTEPGSCDTAGLVTYPNLPQTDLEHHHHHH	soluble
STTEEESLSAAEEGYNVQRDYWRQAEESDGFDIENIKLPPGMHGRVMGLITYNCQLCYRYPFPVLVKLYAKFGLHRYNLIKGTSFELAALMKFNMLQNYMSSFYMTLLAHDPDPAASSSQKTFQVRVDEQQFGTLGINCSIARPKHEGDLLEVSTKTPFIPHFHGGALGDGIFKGELPDCLSDDALNALMEAVSKDELPEHVLDDALYARAGGIFQGELPDWPSDDALNDGKRFYMLKESEWQATDWISMYLELVITTTDRSITEPEVLSKLEIVKVAIETATKDEEPSNERLKAYRAHFYITFKGLAEPRAPRQVFEIGEHVERQAIVRRVMGHRGDLTLKGKLCGGQYIKRRSLALKSGEESPNCKKQTRVG	soluble

----------
methodSummary: soluble on expression in E. coli; label from the status in PepcDB or PDB records

sequenceRecord	soluble on expression in E. coli
MSVYTTAQLLAVNEKKFKFDPLFLRIFFRETYPFSTEKVYLSQIPGLVNMALYVSPIVSGKVIRSRGGSTSEFTPGYVKPKHEVNPLMMTLRLPDEDPQNVADPVYRRRRIILQNMKDEELAIAQVEEKQAVSAVLSGKYTMTGEAFEPVEVDMGRSAGNNIVQAGAAAWSTRDKETYDPTDDIEAYALNARGVVNIIVFDPKGWALFRSFKAVEKKLDTRRGSNSELETAVKDLGMAVSYKGMFGDVAIVVYSGQYVENDVKKNYLPDLTMVLGNTQARGLRTYGCILDADAQREGIDAST	not soluble
MKTTEFTMPEITISYKDNVKASERVKILSSETSYTYLKPFYAECMEHHEESYVMFLNRANKALGISLISKGGMAETVMDVKIILQTALKVHASGIVLSHNHPSGNLRPSEPDKKITTKINEACKVLDLHLLDHIILTEESYYSFADEGLL	not soluble
MASASRLPPLPALRDFIHMYRLRAKKILSQNYLMDMNITRKIAKHAKVIEKDWVIEIGPGPGGITRAILEAGASRLDVVEIDNRFIPPLQHLAEAADSRMFIHHQDALRTEIGDIWKNETARPESVDWHDSNLPAMHVIGNLPFNIASPLIIKYLRDMSYRRGVWQYGRVPLTLTFQLEVAKRLCSPIACDTRSRISIMSQYVAEPKMVFQISGSCFVPRPQVDVGVVRFVPRKTPLVNTSFEVLEKVCRQVFHYRQKYVTKGLKTLYPEELEDELSDDLLKKCRIDPTTTSIRLGIEQFADLAEGYNEQCIRYPGLFLYDYTNKLHNLEDLSKEPNALPPPVPIFAPAPTIDSADNTWSLKNFNCS	not soluble
